Reported TGI by item:
# System: DU-145 prostate
# assay comment: NCI tumour cell line growth inhibition, 48 h

The examples below pair each entry with its known result.
| molecule | val |
| --- | --- |
| COc1ccc(-c2ccc(/C=N/n3c(C)n[nH]c3=S)o2)c([N+](=O)[O-])c1 | > 100 µM |
| CCc1ccc2oc(-c3cc(O)c(-c4nc5cc(CC)ccc5o4)cc3O)nc2c1 | > 100 µM |
| N#CC(=NCCO)C1=C(O)c2ccccc2C1=O | > 100 µM |
| C[C@]12CCc3nc(Nc4ccccc4)sc3C1=CC[C@@H]1[C@@H]2CC[C@]2(C)/C(=N/NC(N)=S)CC[C@@H]12 | > 100 µM |
| Cc1ccc2c(c1)[nH]c1cc(C(F)(F)F)ccc1[p+]2=O (stereo unspecified) | > 100 µM |

What value of TGI on DU-145 prostate does C1CNCCNCCN1 have?
> 100 µM

# get_value(readout= TGI, system= DU-145 prostate) for NC(CS/C(Cl)=C/Cl)C(=O)O (stereo unspecified)
> 100 µM

---

Each entry below carries its reported TGI.
# System: LXFL 529 NSCLC
# assay comment: NCI tumour cell line growth inhibition, 48 h

| compound | reported metric | val |
| --- | --- | --- |
| COC(=O)N/N=C(\C)C(CN1CCCCC1)C(C1=C(O)c2ccccc2OC1)c1ccccc1 (configuration not stated) | TGI | > 100 µM |
| CC(=O)c1sc(-c2nc(C)c(C(=O)/C=C\c3ccc(/C=C\C(=O)c4sc(-c5nc(C)c(C(C)=O)s5)nc4C)cc3)s2)nc1C | TGI | > 100 µM |
| CC(C)CCCC(C)[C@H]1CCC2[C@H]3C(CC[C@@]21C)[C@@]1(C)CCC=C[C@]12C[C@@H]2[C@@H]3O (some centres not stated) | TGI | > 100 µM |
| COc1cc2cccc(N=Cc3cccc(OC)c3OC(C)C)c2cc1OC | TGI | 31.1 µM |

Would you kindly share the measured TGI for COC(=O)/C(C#N)=C1\CCC(O)N1 (configuration not stated) ?
> 100 µM

Bench note: what TGI did NC1=NS(=O)(=O)Nc2nc(-c3ccc(Cl)cc3)c(-c3ccc(Cl)cc3)nc21 show?
> 100 µM

Form field: reported TGI of COc1cccc(-n2c3nc(=O)n(C)c(=O)c-3nc3ccccc32)c1
81.8 µM

Would you mind telling me what TGI value was observed for Cc1cc(C)[n+](CCOc2ccc(/C(=C(/Cl)c3ccccc3)c3ccccc3)cc2)c(C)c1 ?
1.82 µM

If you can, please state the reported TGI value of CC1(C)O/C(=C\c2ccccc2)C(=O)/C(=C/c2ccccc2)O1 .
> 100 µM

Tell me the measured TGI of CC(C)C(=O)/C=C/c1ccc(Br)cc1 , please.
33.8 µM

Requested read-out: TGI. Entry: CCCCOC(=O)NC(=O)c1cn(CCCOC(=O)NCCCCCCNC(=O)OCCCn2cc(C(=O)NC(=O)OCCCC)c(=O)[nH]c2=O)c(=O)[nH]c1=O
> 100 µM

# get_value(readout='TGI', item= O=C(Nc1cc(Cl)ccc1Cl)C(=O)C(c1cnc2ccccc2n1)[N+](=O)[O-] (configuration not stated) )
> 100 µM

---

# Tested on: OVCAR-8 ovarian
# assay comment: NCI tumour cell line growth inhibition, 48 h; in the data active = GI50 below about 0.43 µM; inactive = the rest
Select the correct class. Options are active, inactive and nothing else.

Field: example entries. Status: answers known.
| record smiles | class label |
| --- | --- |
| CC(C)S(=O)(=O)c1ccccc1Nc1nc(Nc2cccc(NC(=O)CN)c2)ncc1Cl | active |
| O=C(Nc1ccc(-c2ccccc2)cc1)C1CCN(S(=O)(=O)c2ccccc2Cl)CC1 | inactive |
| C[C@@]12CCCc3coc(c31)C(=O)c1cc3c(cc12)C(=O)C=CC3=O | inactive |

How did this test come out for COc1ccc(Nc2c3ccccc3nc3occ(Cl)c23)cc1 ?
active

What is the recorded call for this compound in the test? C=C1C(=O)O[C@H]2[C@H]1CC/C(COC(=O)c1ccc(Cl)nc1)=C\CC[C@@]1(C)O[C@@H]21
inactive

Record request — test call for CC(=O)/C=C/c1ccc(C#Cc2ccccc2)s1
inactive

For [Au+].[Au+].[Au+].[c-]1nccn1Cc1ccccc1.[c-]1nccn1Cc1ccccc1.[c-]1nccn1Cc1ccccc1 , which call appears in the assay record?
inactive

---

# Tested on: M14 melanoma
# assay comment: NCI tumour cell line growth inhibition, 48 h
Quick list: TGI per entry.

Solved entries (count: 4):
| molecule | measured on | val |
| --- | --- | --- |
| O=C(Cc1ccccc1)NN1C(=O)/C(=C\c2cccc(O)c2)SC1=Nc1ccccc1 | M14 melanoma | > 100 µM |
| O=c1c2c([N+](=O)[O-])cccc2nc2[nH]c3ccccc3n12 | M14 melanoma | > 75 µM |
| CCn1nc2c3c(ncn3C(C)(C)O2)c1=O | M14 melanoma | > 100 µM |
| C=C1C(=O)O[C@H]2/C=C(/C)C3=CC(=O)[C@@](C)(C[C@@H](OC(=O)/C(C)=C\C)C12)O3 (stereo not given in full) | M14 melanoma | > 28.8 µM |

Now examine the next entry.
Query: TGI; subject: O=C(O)CC[N+]1=CCC(c2ccccc2)(c2ccccc2)O1
> 100 µM

---

The reader will find reported TGI values listed item by item below.
# System: IGROV1 ovarian
# assay comment: NCI tumour cell line growth inhibition, 48 h

| compound | TGI |
| --- | --- |
| CCC1(C(=O)OC(C)(C)C)OC12C(C)CCCC2C (stereo not given) | > 100 µM |

What value of measured TGI is listed for COc1ccc(Nc2nc(NS(=O)(=O)c3cc(C)c(Cl)cc3S)n[nH]2)cc1 ?
> 100 µM

Suppose we examine the compound CCC(C)(C)c1ccc(OCCCCCCN2CCNCC2)cc1 ; what TGI value has been reported?
7.29 µM

# TGI lookup, item Cc1cc[c-]cc1.Fc1c[c-]c(-c2ccccn2)c(F)c1.[Pt+2].c1ccc(P(C[PH+](c2ccccc2)c2ccccc2)c2ccccc2)cc1
12.2 µM

Tell me the measured TGI of C=CCCC(=O)CC(O)(C(F)(F)F)C(F)(F)F , please.
> 100 µM

---

# Test system: SN12C renal
# assay comment: NCI tumour cell line growth inhibition, 48 h
reported metric: log10(TGI) (log10 of the value in µM)
All values: log10 TGI [µM].

Worked examples, 6 compounds total:
| compound | measured on | reported metric | val |
| --- | --- | --- | --- |
| COc1ccc2c(c1)[C@@]13CCCC[C@H]1[C@@H](C2)N(C)CC3=O | SN12C renal | log10(TGI) | 1.70 |
| C[C@]12CC[C@@H]3c4ccc(O)cc4CC[C@H]3[C@@H]1CC[C@@H]2NS(=O)(=O)c1cccc(F)c1 | SN12C renal | log10(TGI) | 0.81 |
| COC(=O)/C(C)=C/[N+](=O)[O-] | SN12C renal | log10(TGI) | 1.61 |
| COc1ccc2c(c1)C(C)Cc1c(ncnc1-n1c(C)nc3ccccc31)N2C (centres undefined) | SN12C renal | log10(TGI) | 1.89 |
| CC(=O)c1ccc2c3c1[C@@H]1O[C@@H]1c1cccc(c1-3)[C@@H]1O[C@H]21 | SN12C renal | log10(TGI) | 1.38 |
| COc1ccc(/C(Cl)=C(\C=O)c2ccc(F)cc2)cc1OC | SN12C renal | log10(TGI) | 1.89 |

In the following, a different compound is considered.
For the compound [Au+].[Au+].[Au+].[c-]1nccn1Cc1ccccc1.[c-]1nccn1Cc1ccccc1.[c-]1nccn1Cc1ccccc1 , what log10(TGI) is on record?
1.74

---

# Test system: SK-MEL-5 melanoma
# assay comment: NCI tumour cell line growth inhibition, 48 h
Below, each entry is listed alongside its reported GI50.

| molecule | GI50 |
| --- | --- |
| O=C(Nc1ccc(Br)cc1)c1ccc(Cl)c(Cl)c1 | 3.45 µM |

// GI50 lookup, key: CN(CCCNC(=O)Cc1ccc2ccc3cccc4ccc1c2c34)CCCNc1cc(-c2ccc3ccccc3c2)nc2ccccc12
1.64 µM

I have this molecule here, N#C/C(=C/N1CCN(C(=O)c2ccco2)C1=S)C(=O)c1ccccc1 , and I need its recorded GI50.
8.25 µM

For the molecule shown here, COc1ccc2c(c1)C(C)Cc1c(ncnc1-n1c(C)nc3ccccc31)N2C (stereo unspecified) , give the reported GI50.
3.42 µM

May I ask what GI50 has been recorded for O=C(Nc1ccc(-c2ccccc2)cc1)C1CCN(S(=O)(=O)c2ccccc2Cl)CC1 ?
69.3 µM

Recorded GI50 of O=C(COc1ccc(/C=C2\CSc3ccccc3C2=O)cc1)Nc1nccs1 , please.
11.5 µM
